Measured Activity accompanies every entry in the list below.
System: MDA-MB-468
Assay: Cytotoxicity against human MDA-MB-468 cells assessed as cellular growth at 10 uM by SRB assay
Format: functional

- Record smiles: "Cc1ccc(NC(=O)c2sc3nc4c(cc3c2N)C(=O)CCC4)c(Br)c1"
  Unit annotation: "%"
  Activity: 106.56
- Record smiles: "O=C(NCCc1ccccc1)c1[nH]c2ccccc2c1Cl"
  Unit annotation: "%"
  Activity: 64.9
- Record smiles: "Cc1ccc(NC(=O)c2sc3nc4c(cc3c2N)C(=O)CCC4)cc1Cl"
  Unit annotation: "%"
  Activity: 104.98
- Record smiles: "Cc1ccccc1NC(=O)c1sc2nc3c(cc2c1N)C(=O)CCC3"
  Unit annotation: "%"
  Activity: -4.56
- Record smiles: "CC1(C)CC(=O)c2cc3c(N)c(C(=O)NCc4ccccc4)sc3nc2C1"
  Unit annotation: "%"
  Activity: 93.1
- Record smiles: "O=C(Nc1ccc2oc(=O)ccc2c1)c1ccc(-c2ccc(Br)cc2)o1"
  Unit annotation: "%"
  Activity: 122.28
- Record smiles: "CC1(C)CCc2cc(-c3ccn(S(=O)(=O)c4ccc(Cl)cc4)n3)ccc2O1"
  Unit annotation: "%"
  Activity: 48.91
- Record smiles: "Cc1ccc(Cl)cc1NC(=O)c1sc2nc3c(cc2c1N)C(=O)CCC3"
  Unit annotation: "%"
  Activity: 8.44
- Record smiles: "O=S(=O)(Oc1ccc(-c2cnc3ccccc3n2)cc1)c1ccc2ccccc2c1"
  Unit annotation: "%"
  Activity: 85.1
- Record smiles: "O=C(NCCc1ccc(Cl)cc1)c1[nH]c2ccccc2c1Cl"
  Unit annotation: "%"
  Activity: 108.58
- Record smiles: "CC1(C)CC(=O)c2cc3c(N)c(C(=O)Nc4ccccc4Cl)sc3nc2C1"
  Unit annotation: "%"
  Activity: 110.28
- Record smiles: "O=C(NCc1ccc(Cl)cc1)c1[nH]c2ccccc2c1Cl"
  Unit annotation: "%"
  Activity: 106.81
- Record smiles: "O=c1/c(=C/c2ccccc2)sc2nc(-c3ccc(Cl)cc3Cl)nn12"
  Unit annotation: "%"
  Activity: 120.34
- Record smiles: "c1ccc(-c2nc(-c3cccs3)no2)cc1"
  Unit annotation: "%"
  Activity: 83.74
- Record smiles: "CC1(C)CC(=O)c2cc3c(N)c(C(=O)Nc4ccc(Cl)cc4)sc3nc2C1"
  Unit annotation: "%"
  Activity: 109.5
- Record smiles: "Cc1cc(C)c(NC(=O)c2sc3nc4c(cc3c2N)C(=O)CCC4)c(C)c1"
  Unit annotation: "%"
  Activity: -27.16
- Record smiles: "COc1cccc(C(=O)Nc2nc3ccc(Cl)cc3s2)c1"
  Unit annotation: "%"
  Activity: 61.26
- Record smiles: "COc1ccc2nc(NC(=O)c3ccc(F)cc3)sc2c1"
  Unit annotation: "%"
  Activity: 102.55
- Record smiles: "Clc1ccc(-c2nc(-c3cccs3)no2)c(Cl)c1"
  Unit annotation: "%"
  Activity: 8.37
- Record smiles: "Cc1ccc(S(=O)(=O)Oc2ccc(-c3cnc4ccccc4n3)cc2)cc1"
  Unit annotation: "%"
  Activity: 107.13
- Record smiles: "Cc1ccc(S(=O)(=O)NC2=NC(=O)/C(=C\\c3ccccc3)S2)cc1"
  Unit annotation: "%"
  Activity: 110.23
- Record smiles: "COc1ccc2[nH]c(C(=O)NCc3ccccc3)cc2c1"
  Unit annotation: "%"
  Activity: 99.1
- Record smiles: "Cc1cc(C)c(NC(=O)c2sc3nc4c(cc3c2N)C(=O)CC(C)(C)C4)c(C)c1"
  Unit annotation: "%"
  Activity: 85.24
- Record smiles: "CC1(C)CCc2cc(-c3ccn(S(=O)(=O)c4ccccc4Cl)n3)ccc2O1"
  Unit annotation: "%"
  Activity: 63.67
- Record smiles: "Clc1ccccc1Nc1nnc(-c2ccncc2)s1"
  Unit annotation: "%"
  Activity: 110.42
- Record smiles: "O=C(Nc1nc2ccc(Cl)cc2s1)c1ccc(Cl)cc1"
  Unit annotation: "%"
  Activity: 114.39
- Record smiles: "Cc1ccc(NC(=O)c2sc3nc(-c4cccs4)ccc3c2N)cc1C"
  Unit annotation: "%"
  Activity: 44.79
- Record smiles: "O=C(Nc1ccc2oc(=O)ccc2c1)c1ccc(-c2ccc(Cl)c(Cl)c2)o1"
  Unit annotation: "%"
  Activity: 97.57
- Record smiles: "O=S(=O)(Oc1ccc(-c2cnc3ccccc3n2)cc1)c1ccccc1"
  Unit annotation: "%"
  Activity: 84.46
- Record smiles: "O=c1/c(=C/c2ccc(Cl)cc2Cl)sc2nc(-c3ccccc3)nn12"
  Unit annotation: "%"
  Activity: 112.09
- Record smiles: "COc1ccc(NC(=O)c2sc3nc4c(cc3c2N)C(=O)CCC4)cc1"
  Unit annotation: "%"
  Activity: 87.19
- Record smiles: "O=C(Nc1nc2ccccc2s1)c1ccc(F)cc1"
  Unit annotation: "%"
  Activity: 94.15
- Record smiles: "Cc1ccc(C2=N/C(=C\\c3ccccc3)C(=O)O2)cc1"
  Unit annotation: "%"
  Activity: 99.59
- Record smiles: "Nc1c(C(=O)Nc2ccc(Cl)c(Cl)c2)sc2nc(-c3cccs3)ccc12"
  Unit annotation: "%"
  Activity: 19.37
- Record smiles: "Clc1cccc(-c2nc(-c3cccs3)no2)c1"
  Unit annotation: "%"
  Activity: 44.69
- Record smiles: "Clc1ccc(-c2nc(-c3cccs3)no2)cc1"
  Unit annotation: "%"
  Activity: 3.37
- Record smiles: "Oc1ccccc1-c1nc(-c2cccs2)no1"
  Unit annotation: "%"
  Activity: 44.64
